EC50 values by entry
- testedOn: CanAg antigen (human) (UniProt P15941)
- testName: flow cytometry on CanAg positive Colo205 cells, AF488 anti-human IgG secondary, MFI curve

binder	valueReported
HC1 + LC3 (antibody, human IgG1, kappa, V domains shown) VH: QVQLVQSGAEVKKPGASVKVSCKASDYTFTYYGINWVRQAPGQGLEWMGWIDTTTGEPNYAQKLQGRVTFTLDTSASTAYMELRSLRSDDTAVYYCARRGPYNWYFDVWGQGTLVTVSS VL: DIVMTQTPLSLSVTPGQPASISCKSSKSLLHSNGNTYLYWYLQKPGQSPQLLIYRMSNLFSGVPDRFSGSGSGTDFTLKISRVEAEDVGVYYCLQHLEYPFTFGPGTKVDIKR	0.305 mg/L
HC1 + LC2 (antibody, human IgG1, kappa, V domains shown) VH: QVQLVQSGAEVKKPGASVKVSCKASDYTFTYYGINWVRQAPGQGLEWMGWIDTTTGEPNYAQKLQGRVTFTLDTSASTAYMELRSLRSDDTAVYYCARRGPYNWYFDVWGQGTLVTVSS VL: DIVMTQSPLSLPVTPGEPASISCRSSKSLLHSNGNTYLYWYLQKPGQSPQLLIYRMSNLASGVPDRFSGSGSGTDFTLKISRVEAEDVGVYYCLQHLEYPFTFGPGTKVDIKR	0.268 mg/L

Now take the following binder into account.
// EC50 lookup, binder = HC2 + LC2 (antibody, human IgG1, kappa, V domains shown) VH: QVQLVQSGAEVKKPGASVKVSCKASDYTFTYYGMNWVRQAPGQGLEWMGWIDTTTGEPSYAQKFQGRVTFTLDTSASTVYMELSSLRSEDTAVYYCARRGPYNWYFDVWGQGTLVTVSS VL: DIVMTQSPLSLPVTPGEPASISCRSSKSLLHSNGNTYLYWYLQKPGQSPQLLIYRMSNLASGVPDRFSGSGSGTDFTLKISRVEAEDVGVYYCLQHLEYPFTFGPGTKVDIKR , result: 0.408 mg/L
